Species: Rattus norvegicus
Assay: Inhibition of rat recombinant geranylgeranyltransferase type I expressed in Escherichia coli assessed as residual enzyme activity for geranylgeranylation of K-Ras4B at 50 uM incubated for 30 mins in presence of [3H]GGPP by scintillation counting assay relative to control
Measure name: Activity (%)

Structure smiles	Value unit	Activity
COc1cc([C@@H]2CC=C(C(C)=O)CN2S(=O)(=O)c2ccc(C)cc2)cc(OC)c1OC	%	92.3
COc1cccc([C@@H]2CC=C(C(=O)O)[C@H](c3cccc(F)c3)N2S(=O)(=O)c2ccc(C)cc2)c1	%	82.9
COc1cccc([C@@H]2C[C@@H](Sc3ccccc3)[C@H](C(=O)O)CN2S(=O)(=O)c2ccc(C)cc2)c1	%	86.1
C=CCS[C@H]1[C@@H](C(=O)O)[C@H](c2ccc(Cl)c(Cl)c2)N(S(=O)(=O)c2ccc(C)cc2)[C@@H]1CC1CCCC1	%	12.1
CCc1ccc([C@@H]2CC=C(C(=O)O)[C@H](c3ccc(Br)cc3)N2S(=O)(=O)c2ccc(C)cc2)cc1	%	69.2

1: CCOc1ccc([C@@H]2CC=C(C(=O)O)[C@H](c3ccc(C(C)(C)C)cc3)N2S(=O)(=O)c2ccc(C)cc2)cc1
2: Cc1ccc(S(=O)(=O)N2[C@H](CC3CCCC3)[C@@H](SCCC(=O)OC(C)(C)C)[C@@H](C(=O)O)[C@@H]2c2cccc(Cl)c2)cc1
Enquiry: # returns the entry with the larger Activity; inputs 1 and 2 Write the label of whichever entry you select.
Return: 1
(1: 58.7%, 2: 20.6%)

---

Organism: Rattus norvegicus
Test: Inhibition of rat recombinant geranylgeranyltransferase type I expressed in Escherichia coli assessed as residual enzyme activity for geranylgeranylation of K-Ras4B at 50 uM incubated for 30 mins in presence of [3H]GGPP by scintillation counting assay relative to control
Measure name: Activity (%)

Some entries whose results are on file:
Structure smiles	Value unit	Activity
CCCCCS[C@@H]1C[C@@H](c2ccc(C)cc2)N(S(C)(=O)=O)C[C@H]1C(=O)O	%	107
COc1ccc([C@@H]2C[C@@H](SC3CCCC3)[C@H](C(=O)O)CN2S(=O)(=O)c2ccc(C)cc2)cc1	%	91.5
CS(=O)(=O)N1[C@@H](c2cccc(Cl)c2)C(C(=O)O)=CC[C@H]1c1ccccc1	%	72.4
CCS[C@@H]1C[C@@H](c2cc(OC)c(OC)c(OC)c2)N(S(=O)(=O)c2ccc(C)cc2)C[C@H]1C(=O)O	%	90.4
Cc1ccc([C@@H]2CC=C(C(=O)O)[C@H](c3cccc(Cl)c3)N2S(C)(=O)=O)cc1	%	64.4

P: Cc1ccc([C@@H]2C[C@@H](Sc3ccccc3)[C@H](C(=O)O)CN2S(=O)(=O)c2ccccc2)cc1
Q: Cc1ccc(S(=O)(=O)N2[C@H](CC3CCCC3)[C@@H](SCCC(=O)OC(C)(C)C)[C@@H](C(=O)O)[C@@H]2c2cccc(F)c2)cc1
Enquiry: Please indicate which entry, P or Q , has the lower recorded Activity value. Write the label of whichever entry you select.
Return: Q

---

Species: Rattus norvegicus
Assay: Inhibition of rat recombinant geranylgeranyltransferase type I expressed in Escherichia coli assessed as residual enzyme activity for geranylgeranylation of K-Ras4B at 50 uM incubated for 30 mins in presence of [3H]GGPP by scintillation counting assay relative to control
Measure name: Activity (%)

Structure smiles	Reading
COc1ccc([C@@H]2CC=C(C(=O)O)[C@H](c3cccc(C)c3)N2S(=O)(=O)c2ccc(Cl)cc2)cc1	85.8
CCCS[C@@H]1C[C@@H](c2ccc(C)cc2)N(S(=O)(=O)c2ccc(Cl)cc2)C[C@H]1C(=O)O	83.2
Cc1ccc(S(=O)(=O)N2[C@@H](c3ccc(C(C)(C)C)cc3)C(C(=O)O)=CC[C@H]2c2ccc(C#N)cc2)cc1	87.7
CS(=O)(=O)N1[C@@H](c2ccc(Br)cc2)C(C(=O)O)=CC[C@H]1c1ccccc1	83.6
Cc1ccc(S(=O)(=O)N2[C@@H](c3cccc(F)c3)C(C(=O)O)=CC[C@H]2c2ccc(C#N)cc2)cc1	88.3
COc1cc([C@@H]2C[C@@H](SCc3ccc(C(C)(C)C)cc3)[C@H](C(=O)O)CN2S(=O)(=O)c2ccc(C)cc2)cc(OC)c1OC	71.3

P: COc1ccc([C@@H]2C[C@@H](Sc3ccccc3)[C@H](C(=O)O)CN2S(=O)(=O)c2ccc(C)cc2)cc1
Q: CCc1ccc([C@@H]2C[C@@H](Sc3ccccc3)[C@H](C(=O)O)CN2S(=O)(=O)c2ccc(C)cc2)cc1
Enquiry: Please indicate which entry, P or Q , has the lower recorded Activity value. Write the label of whichever entry you select.
Return: Q
(Q: 45.7%, P: 79.6%)

---

Species: Rattus norvegicus
Assay: Inhibition of rat recombinant geranylgeranyltransferase type I expressed in Escherichia coli assessed as residual enzyme activity for geranylgeranylation of RhoA at 50 uM incubated for 30 mins in presence of [3H]GGPP by scintillation counting assay relative to control
Measure name: Activity (%)

Structure smiles	Activity (%)
COc1ccc([C@H]2C(C(=O)O)=C[C@@H](C(C)(C)C)N2S(=O)(=O)c2ccc(C)cc2)cc1OC	6.1
Cc1ccc(S(=O)(=O)N2[C@H](CC3CCCC3)[C@@H](SCCC(=O)OC(C)(C)C)[C@@H](C(=O)O)[C@@H]2c2cccc(Cl)c2)cc1	5.6

---

Species: Rattus norvegicus
Assay: Inhibition of rat recombinant geranylgeranyltransferase type I expressed in Escherichia coli assessed as residual enzyme activity for geranylgeranylation of K-Ras4B at 50 uM incubated for 30 mins in presence of [3H]GGPP by scintillation counting assay relative to control
Measure name: Activity (%)

Structure smiles	Measure name	Reading
CCCCCCS[C@@H]1C[C@@H](c2cccc(Br)c2)N(S(=O)(=O)c2ccc(C)cc2)C[C@H]1C(=O)O	Activity	68.9

1: COc1cccc([C@@H]2CC=C(C(=O)O)[C@H](c3ccc(C)cc3)N2S(=O)(=O)c2ccc(C)cc2)c1
2: C=CCS[C@@H]1C[C@@H](c2ccc(OC)cc2)N(S(=O)(=O)c2ccc(Cl)cc2)C[C@H]1C(=O)O
Enquiry: Please indicate which entry, 1 or 2 , has the lower recorded Activity value. Write the label of whichever entry you select.
Return: 1

P: Cc1ccc([C@@H]2CC=C(C(=O)O)[C@H](c3cccc(C)c3)N2S(=O)(=O)c2ccccc2)cc1
Q: CCCCCS[C@@H]1C[C@@H](c2ccc(OC)c(OC)c2)N(S(=O)(=O)c2ccc(C)cc2)C[C@H]1C(=O)O
Enquiry: # returns the entry with the larger Activity; inputs P and Q Write the label of whichever entry you select.
Return: Q
(Q: 109%, P: 69.8%)

1: CS(=O)(=O)N1[C@@H](c2ccc(F)cc2)C(C(=O)O)=CC[C@H]1c1ccc(Cl)cc1
2: COc1cccc([C@@H]2CC=C(C(=O)O)[C@H](c3ccc(C(C)(C)C)cc3)N2S(=O)(=O)c2ccc(C)cc2)c1
Enquiry: Please indicate which entry, 1 or 2 , has the lower recorded Activity value. Write the label of whichever entry you select.
Return: 1

---

Target: Geranylgeranyl transferase type-2 (Homo sapiens, UniProt P53611+Q92696)
Sequence (P53611 whole entry): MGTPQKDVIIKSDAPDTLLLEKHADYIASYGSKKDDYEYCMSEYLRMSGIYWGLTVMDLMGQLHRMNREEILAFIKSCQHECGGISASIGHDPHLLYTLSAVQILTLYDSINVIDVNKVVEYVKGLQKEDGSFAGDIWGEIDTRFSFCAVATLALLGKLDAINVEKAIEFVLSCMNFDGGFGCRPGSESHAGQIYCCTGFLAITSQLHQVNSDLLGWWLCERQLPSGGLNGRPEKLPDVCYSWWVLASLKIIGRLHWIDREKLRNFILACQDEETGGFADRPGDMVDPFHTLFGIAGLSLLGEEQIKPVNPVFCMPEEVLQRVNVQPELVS
Sequence (Q92696 whole entry): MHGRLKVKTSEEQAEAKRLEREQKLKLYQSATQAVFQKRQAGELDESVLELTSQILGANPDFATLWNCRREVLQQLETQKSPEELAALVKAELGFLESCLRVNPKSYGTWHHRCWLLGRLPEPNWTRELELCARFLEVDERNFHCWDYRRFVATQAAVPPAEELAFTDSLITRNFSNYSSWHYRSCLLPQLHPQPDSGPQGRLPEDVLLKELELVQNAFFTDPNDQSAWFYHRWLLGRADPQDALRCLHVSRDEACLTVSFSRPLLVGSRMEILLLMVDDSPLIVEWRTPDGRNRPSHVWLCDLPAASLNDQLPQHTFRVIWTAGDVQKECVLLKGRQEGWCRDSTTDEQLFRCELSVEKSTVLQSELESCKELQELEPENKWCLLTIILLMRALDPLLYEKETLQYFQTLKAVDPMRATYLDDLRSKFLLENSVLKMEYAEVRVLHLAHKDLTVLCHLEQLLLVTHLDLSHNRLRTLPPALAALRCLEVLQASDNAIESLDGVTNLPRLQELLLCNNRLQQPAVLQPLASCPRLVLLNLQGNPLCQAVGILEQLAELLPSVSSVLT
Test: Inhibition of RabGGTase (unknown origin) using YPTI as substrate protein and [3H]geranylgeranyl pyrophosphate incubated for 20 mins by scintillation counting assay
pIC50: −log10 of the molar value.
Measure name: pIC50

Some entries whose results are on file:
Structure smiles	Reading
CCCCCCS[C@H]1[C@@H](C(=O)O)[C@H](c2ccc(Cl)c(Cl)c2)N(S(=O)(=O)c2ccc(C)cc2)[C@@H]1CCC	5.15
Cc1ccc(S(=O)(=O)N2[C@H](CC3CCCC3)[C@@H](SCCC(=O)OC(C)(C)C)[C@@H](C(=O)O)[C@@H]2c2cccc(Cl)c2)cc1	5.33
CC(C)(C)OC(=O)CCS[C@H]1[C@@H](C(=O)O)[C@H](c2ccc(Cl)cc2)N(S(=O)(=O)c2ccc(Cl)cc2)[C@@H]1CC1CCCC1	5.51
CCCCCCS[C@H]1[C@@H](C(=O)O)[C@H](c2ccc(Br)cc2)N(S(=O)(=O)c2ccc(C)cc2)[C@@H]1CCC	5.68
CC(C)(C)OC(=O)CCS[C@H]1[C@@H](C(=O)O)[C@H](c2ccc(Cl)cc2)N(S(=O)(=O)c2ccccc2)[C@@H]1CC1CCCC1	5.15
CCCCCCS[C@H]1[C@@H](C(=O)O)[C@H](c2ccc(Br)cc2)N(S(=O)(=O)c2ccc(C)cc2)[C@@H]1CC	5.32
CCCCCS[C@H]1[C@@H](C(=O)O)[C@H](c2ccc(Br)cc2)N(S(=O)(=O)c2ccc(C)cc2)[C@@H]1CCC	5.44

I: CCC[C@@H]1[C@@H](Sc2ccc(OC)cc2)[C@@H](C(=O)O)[C@H](c2ccc(Br)cc2)N1S(=O)(=O)c1ccc(C)cc1
II: CCCCCCS[C@H]1[C@@H](C(=O)O)[C@H](c2ccc(Br)cc2)N(S(=O)(=O)c2ccc(C)cc2)[C@@H]1CCCCCC
Enquiry: # returns the entry with the larger pIC50; inputs I and II Write the label of whichever entry you select.
Return: II
(II: 5.66, I: 5.35)
